test: Intrinsic clearance in mouse liver S9 fraction; type: ADME, subcellular; conditions: read-out: CLH
# microsomal CLint values compiled below
Form entry: value (µL/min/mg) — number only.

> print(dat)
                           substance.smiles            metric  observed.value
1  CCS(=O)(=O)c1ccc2oc(-c3ccc4ccccc4c3)nc2c1  microsomal CLint              19

### Prompt What value of microsomal CLint has been reported for the following compound? CCS(=O)(=O)c1ccc2oc(-c3ccc4c(c3)C=C[C@H](O)[C@H]4O)nc2c1
### Response 35

### Prompt What value of microsomal CLint has been reported for the following compound? CCS(=O)(=O)c1ccc2oc(-c3ccc4c(c3)[C@@H](O)[C@H](O)C=C4)nc2c1
### Response 13
